Cited source for all entries: the supplement of paper PMC6992640

Tested on: HCI13 (cells of an ER-positive luminal breast cancer xenograft)
Assay: cell viability (% of vehicle); higher = less cytotoxic
Settings: 10 µM; 72 h
In this section, each of the molecules is paired with its reported cell viability.
# respond with the number and nothing more

# molecule, cell viability
measured = [
    ("Cc1cccc(Cc2cnc[nH]2)c1C.Cl [Detomidine HCl]", 79.4),
    ("CC(=O)Nc1cc([As](=O)(O)O)ccc1O", 73.2),
    ("C[C@]12COC(=O)C[C@@H]1CC[C@@H]1[C@@H]2CC[C@@]2(C)[C@H]1CC[C@]2(C)O", 147),
    ("Cl.O=C1CCC2(O)C3Cc4ccc(O)c5c4C2(CCN3CC2CC2)C1O5 (configuration not stated) [Naltrexone HCl]", 167),
    ("CC(=O)O[C@@]12CO[C@@H]1C[C@@H](O)[C@@]1(C)C(=O)[C@@H](O)C3=C(C)[C@@H](O)C[C@@](O)([C@@H](OC(=O)c4ccccc4)[C@H]21)C3(C)C", 97.8),
    ("O=C1CCC2(O)C3Cc4ccc(O)c5c4C2(CCN3CC2CC2)C1O5 (configuration not stated) [Naltrexone]", 100),
]

Turning to the following molecule.
// cell viability lookup, key: CN1C2CCC1CC(OC(=O)C(CO)c1ccccc1)C2.CN1C2CCC1CC(OC(=O)C(CO)c1ccccc1)C2.O.O=S(=O)(O)O (configuration not stated) 95.4

* * *

In this section, each of the molecules is paired with its reported cell viability.
System: HCI01 (cells of a triple-negative basal-like breast cancer xenograft)
Experiment: cell viability (% of vehicle); higher = less cytotoxic
Settings: 1 µM; 72 h
# respond with the number and nothing more

Completed entries (count: 2):
# molecule, resultValue
records = [
    ("Cc1cc(C(C#N)c2ccc(Cl)cc2)c(Cl)cc1NC(=O)c1cc(I)cc(I)c1O (centres undefined) [Closantel]", 88.8),
    ("Cc1cc(C(C#N)c2ccc(Cl)cc2)c(Cl)cc1NC(=O)c1cc(I)cc(I)c1[O-].[Na+] (centres undefined) [Closantel Sodium]", 93.1),
]

// cell viability lookup, key: CCCCCCCCCCCCCCCC[N+](C)(C)C.[Br-] [Cetrimonium Bromide (CTAB)] 87.8

Now consider CCCCCCCCCCCC[N+](C)(C)CCOc1ccccc1.[Br-] [Domiphen Bromide] and answer again. 88.5

* * *

Tested on: WHIM30 (cells of a triple-negative basal-like breast cancer xenograft)
Experiment: cell viability (% of vehicle); higher = less cytotoxic
Conditions: 10 µM; 72 h
experimentalEndpoint: cell viability
# respond with the number and nothing more

Completed entries (count: 3):
# molecule, experimentalEndpoint, resultValue
data = [
    ("Cl.NCC1(CC(=O)O)CCCCC1 [Gabapentin HCl]", "cell viability", 115),
    ("CC(O)(CS(=O)(=O)c1ccc(F)cc1)C(=O)Nc1ccc(C#N)c(C(F)(F)F)c1 (stereo not drawn) [Bicalutamide]", "cell viability", 108),
    ("Cn1cc(C2=C(c3cn(C4CCN(Cc5ccccn5)CC4)c4ccccc34)C(=O)NC2=O)c2ccccc21", "cell viability", 119),
]

// cell viability lookup, key: CC1C=CC=CCCC=CC=CC=CC=CC(OC2OC(C)C(O)C(N)C2O)CC2OC(O)(CC(O)C(O)CCC(O)CC(O)CC(O)CC(=O)OC(C)C(C)C1O)CC(O)C2C(=O)O (stereo not drawn) 147

Now consider COc1cc2c(c(OC)c1OC)-c1ccc(OC)c(=O)cc1C(NC(C)=O)CC2 (stereo not drawn) and answer again. 145

Now consider O=C(OC1CC2CCC(C1)[N+]21CCCC1)C(O)(c1ccccc1)c1ccccc1.[Cl-] (stereo not drawn) [Trospium chloride] and answer again. 121

Now consider Br.COC(=O)C1=CCCN(C)C1 [Arecoline hydrobromide] and answer again. 114

Now consider Cc1cccc(C)c1NC1=NCCCS1.Cl [Xylazine HCl] and answer again. 127

* * *

In this section, each of the compounds is paired with its reported cell viability.
Tested on: WHIM30
Experiment: cell viability (% of vehicle); higher = less cytotoxic
Settings: 10 µM; 72 h
# respond with the number and nothing more

Completed entries (count: 10):
# compound, measuredOn, resultValue
data = [
    ("O=C(OC1C[N+]2(CCCOc3ccccc3)CCC1CC2)C(O)(c1cccs1)c1cccs1.[Br-] (configuration not stated) [Aclidinium Bromide]", "WHIM30", 106),
    ("CC(C)c1c(CN(C)C(C)Cc2ccccc2)n(C)n(-c2ccccc2)c1=O (configuration not stated)", "WHIM30", 124),
    ("C[C@@H]1CC[C@H]2[C@@H](C)C(=O)O[C@@H]3OC4(C)CC[C@@H]1[C@]32OO4", "WHIM30", 96.3),
    ("COc1ccc(C(CN(C)C)C2(O)CCCCC2)cc1.Cl (configuration not stated)", "WHIM30", 169),
    ("Cc1cccc(C)c1NC(=O)CN1CCCC1=O", "WHIM30", 165),
    ("O=P1(N(CCCl)CCCl)NCCCO1 (configuration not stated) [Cyclophosphamide]", "WHIM30", 115),
    ("CN1C(=O)CCS(=O)(=O)C1c1ccc(Cl)cc1 (configuration not stated)", "WHIM30", 172),
    ("CCC(C(N)=O)N1CCCC1=O (configuration not stated)", "WHIM30", 143),
    ("Cl.Cn1c(CCCC(=O)O)nc2cc(N(CCCl)CCCl)ccc21 [Bendamustine HCl]", "WHIM30", 92.1),
    ("C=C1CC2C(CCC3(C)C(=O)CCC23)C2(C)C=CC(=O)C=C12 (configuration not stated)", "WHIM30", 151),
]

// cell viability lookup, key: Cl.NCC(O)c1ccc(O)cc1 (racemic) [(+,-)-Octopamine HCl] 149

Now consider O=C1CCC2(O)C3Cc4ccc(O)c5c4C2(CCN3CC2CC2)C1O5 (configuration not stated) [Naltrexone] and answer again. 130

Now consider Cc1cccc(C(C)c2cnc[nH]2)c1C (configuration not stated) and answer again. 120

* * *

Tested on: WHIM2 (cells of a triple-negative basal-like breast cancer xenograft)
Experiment: cell viability (% of vehicle); higher = less cytotoxic
Settings: 10 µM; 72 h
experimentalEndpoint: cell viability

Completed entries (count: 5):
# compound, cell viability
measured = [
    ("CCCC1CC(=O)N(C(CC)C(N)=O)C1 (stereo not drawn) [Brivaracetam]", 98.2),
    ("O=c1cccc2n1C[C@@H]1CNC[C@H]2C1 [Cytisine]", 87.9),
    ("Cc1cccc(Cc2cnc[nH]2)c1C.Cl [Detomidine HCl]", 85.5),
    ("CCNCC.O=S(=O)(O)c1cc(O)ccc1O [Ethamsylate]", 92.2),
    ("CCC(COC(=O)c1cc(OC)c(OC)c(OC)c1)(c1ccccc1)N(C)C (stereo not drawn) [Trimebutine]", 96.2),
]

// cell viability lookup, key: CC1C=CC=CCCC=CC=CC=CC=CC(OC2OC(C)C(O)C(N)C2O)CC2OC(O)(CC(O)C(O)CCC(O)CC(O)CC(O)CC(=O)OC(C)C(C)C1O)CC(O)C2C(=O)O (stereo not drawn) [Nystatin (Fungicidin)] 96.5

Now consider CCC1(C)CC(=O)NC(=O)C1 [Bemegride] and answer again. 97.9

Now consider O=C1CCC2(O)C3Cc4ccc(O)c5c4C2(CCN3CC2CC2)C1O5 (stereo not drawn) [Naltrexone] and answer again. 92.4

* * *

In this section, each of the compounds is paired with its reported cell viability.
Test system: HCI01
Experiment: cell viability (% of vehicle); higher = less cytotoxic
Details: 10 µM; 72 h
Structures can show the parent of a compound that is named as a salt.
# respond with the number and nothing more

Completed entries (count: 6):
# compound, cell viability
data = [
    ("O=c1cccc2n1C[C@@H]1CNC[C@H]2C1", 93.3),
    ("Br.COC(=O)C1=CCCN(C)C1 [Arecoline hydrobromide]", 94),
    ("CC(C)c1c(CN(C)C(C)Cc2ccccc2)n(C)n(-c2ccccc2)c1=O (stereo not given)", 121),
    ("Br.CN1C2CC(OC(=O)C(CO)c3ccccc3)CC1C1OC12 (stereo not given) [Scopolamine hydrobromide]", 108),
    ("NC(=O)CN1CC(O)CC1=O (stereo not given)", 111),
    ("Cl.NCC(O)c1ccc(O)cc1 (racemic) [(+,-)-Octopamine HCl]", 101),
]

So what cell viability did CC12CC(=CO)C(=O)CC1CCC1C2CCC2(C)C1CCC2(C)O (stereo not given) get with HCI01? 114

Now consider CC(=Cc1csc(C)n1)C1CC2OC2(C)CCCC(C)C(O)C(C)C(=O)C(C)(C)C(O)CC(=O)O1 (stereo not given) [Epothilone B (EPO906, Patupilone)] and answer again. 154

Now consider COc1cc2c(c(OC)c1OC)-c1ccc(OC)c(=O)cc1C(NC(C)=O)CC2 (stereo not given) and answer again. 141

Now consider Cc1cccc(Cc2cnc[nH]2)c1C.Cl [Detomidine HCl] and answer again. 118

Now consider COc1cc2c(cc1OC)C13CCN4CC5=CCOC6CC(=O)N2C1C6C5CC43 (stereo not given) and answer again. 90.3

Now consider Cc1c(N)nc(C(CC(N)=O)NCC(N)C(N)=O)nc1C(=O)NC(C(=O)NC(C)C(O)C(C)C(=O)NC(C(=O)NCCc1nc(-c2nc(C(=O)NCCC[S+](C)C)cs2)cs1)C(C)O)C(O[C@@H]1O[C@@H](CO)[C@@H](O)[C@H](O)[C@@H]1O[C@H]1O[C@H](CO)[C@@H](O)[C@H](OC(N)=O)[C@@H]1O)c1cnc[nH]1 (stereo not given in full) [Bleomycin Sulfate] and answer again. 117

Now consider CN1c2ccccc2C(NCCCCCCC(=O)[O-])c2ccc(Cl)cc2S1(=O)=O.[Na+] (stereo not given) [Tianeptine sodium] and answer again. 132

Now consider C[N+](C)(C)CC(=O)O.[Cl-] [Betaine hydrochloride] and answer again. 111

Now consider CC(C)N(CCNC(=O)CN1CCCC1=O)C(C)C and answer again. 85.1
